The entries that follow carry Ki values tested on RAF proto-oncogene serine/threonine-protein kinase (Homo sapiens, UniProt P04049), drawn from several published reports.

Reference set (2 entries):
- smiles_data: "CN(C)CCOc1ccc(-c2nc(-c3ccncc3)c(-c3ccc4c(c3)CC/C4=N\\O)[nH]2)cc1"
  subject_of_test: "RAF proto-oncogene serine/threonine-protein kinase (Homo sapiens, UniProt P04049)"
  Ki: "1.72 nM"
- smiles_data: "CNc1cncc(-c2c[nH]c(=O)c(NC(=O)c3ccc(N4CCC[C@H]4CN4CCCC4)cc3)c2)n1"
  subject_of_test: "RAF proto-oncogene serine/threonine-protein kinase (Homo sapiens, UniProt P04049)"
  Ki: "> 2000 nM"

Input: # lookup: RAF proto-oncogene serine/threonine-protein kinase (Homo sapiens, UniProt P04049) Ki, key = CCC(=O)c1csc(NC(=O)[C@H]([C@@H](C)c2ccccc2)N2C(=O)N[C@H](c3ccc(OCCO)cc3)C2=O)n1
Output: > 50000 nM
